- system-tested: T1, S. pombe ubiquitin with an N-terminal 6xhistidine-tag, TEV-cleavage site and an N-terminal free cysteine (S. pombe, UniProt P0CG72 1-76)
- T1 construct: ubiquitin of S. pombe, the cut product of its precursors; An added free cysteine stands N-terminal of ubiquitin together with the tag and the TEV linker; Used 15N-labelled or unlabelled; also called 15N-labeled ubiquitin; 15N-ubiquitin; source: E. coli BL21(DE3), purified (nickel Sepharose, SEC); not shown: His6, N-terminal, kept; TEV cleavage site, N-terminal, kept
- assay-method-text: NMR titration; 100 µM 15N-ubiquitin, unlabelled peptide or protein added or titrated (peptides to 1 mM, WT Dss1 peptide to 5 mM); 20 mM NaH2PO4, 150 mM NaCl, 5 mM TCEP, pH 7.5; CSPs of 1H-15N-HSQC, global fit to a one-site model
- condition: both partners purified
pKd: −log10 of the molar value.
property-name: pKd

Known pKd results, listed for orientation:
Quick one: give measured pKd for Ac-DDTLWWEDDWWDDED-NH2 (PepDW with the two asparagines of the core substituted with aspartates; also called DWD peptide; source: synthetic peptide, bought: TAG Copenhagen) [PepDWD]
3.22

Quick one: give measured pKd for Ac-DDTLWWENNWWDDED-NH2 (UBS1 of S. pombe Dss1 (O14140) with two extra tryptophans; also called double tryptophan; Pep42 (as soluble peptide); source: synthetic peptide, bought: TAG Copenhagen) [PepDW]
2.92

Quick one: give measured pKd for Dss1 N71C (mentioned as "Dss1 WT") (natural protein, S. pombe, UniProt O14140 1-71, looked up, Dss1 (deleted in split hand/split foot 1) of S. pombe; Used unlabelled, 15N- or 13C,15N-labelled; also called full-length Dss1; WT Dss1; source: E. coli BL21(DE3), purified (nickel Sepharose, ULP1 cleavage, reversed phase); not shown: His6-SUMO, N-terminal, cleaved) MSRAALPSLENLEDDDEFEDFATENWPMKDTELDTGDDTLWENNWDDEDIGDDDFSVQLQAELKKKGVAAC
3.42

P: Ac-GDDTLWENNWDDEDI-NH2 (also called WT Dss1 peptide; UBS1 from Dss1; source: synthetic peptide, bought: TAG Copenhagen) [wild-type Dss1 peptide]
Q: Ac-DLWENNWDLWENNWD-NH2 (core motif WENNW of S. pombe Dss1 (O14140) repeated; also called double motif; Pep43 (as soluble peptide); source: synthetic peptide, bought: TAG Copenhagen) [PepDM]
R: Ac-DLWEDDWDLWEDDWD-NH2 (PepDM with the asparagines of the core substituted with aspartates; also called DMD peptide; source: synthetic peptide, bought: TAG Copenhagen) [PepDMD]
Please rank these binders by pKd in descending order. Give the labels in the order requested.
R, Q, P
(R: 3.32, Q: 2.89, P: 2.52)
